The measured values listed here are drawn from PubChem BioAssay (EPA / NIEHS).

Assay: CCTE_Shafer_MEA_dev_network_spike_peak: CCTE's Neural Network Formation Assay for Mean Number of Electrodes in Network Spike, Shafer Lab (AID 2284049)
The source made the active and inactive calls. The calls were made as follows: active = hit-call score of the fitted dose curve at least 0.9, where 1 is the maximum; inactive = score below 0.9.
Please state which outcome applies, choosing from active, inactive

Dear colleague, could you share the recorded outcome for CC(C)=CC1C(C(=O)OCc2coc(Cc3ccccc3)c2)C1(C)C (stereo unspecified) when you have a moment? inactive

Dear colleague, could you share the recorded outcome for CS(=O)(=O)c1ccc(C(=O)C2C(=O)CCCC2=O)c([N+](=O)[O-])c1 when you have a moment? inactive

Dear colleague, could you share the recorded outcome for N#CN=C1SCCN1Cc1ccc(Cl)nc1 when you have a moment? inactive

Dear colleague, could you share the recorded outcome for CC1(C)C(C(=O)OC(C#N)c2cccc(Oc3ccccc3)c2)C1(C)C (stereo unspecified) when you have a moment? active

Dear colleague, could you share the recorded outcome for CC(C)(C)C(=O)C(Oc1ccc(Cl)cc1)n1cncn1 (stereo unspecified) when you have a moment? active

Dear colleague, could you share the recorded outcome for COP(=O)(OC)O/C(C)=C/C(=O)N(C)C when you have a moment? inactive

Dear colleague, could you share the recorded outcome for CN/C(=N\[N+](=O)[O-])NCc1cnc(Cl)s1 when you have a moment? inactive

Dear colleague, could you share the recorded outcome for CCCN(CC)CC1COC2(CCC(C(C)(C)C)CC2)O1 (stereo unspecified) when you have a moment? active

Dear colleague, could you share the recorded outcome for CS(=O)(=O)c1cc(C(F)(F)F)ccc1C(=O)c1cnoc1C1CC1 when you have a moment? inactive

Dear colleague, could you share the recorded outcome for CCN(CC)c1nc(C)cc(OP(=S)(OC)OC)n1 when you have a moment? active

Dear colleague, could you share the recorded outcome for COP(=S)(OC)Oc1ccc([N+](=O)[O-])c(C)c1 when you have a moment? inactive

---

Assay: APR_HepG2_CellLoss_24hr: Apredica 24-hour HepG2 Assay for Cell Loss (AID 2282908);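 as to AC50: fit in both directions so a hit may be cell loss or gain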
Conditions: high-content imaging
Activity calls are given as the source filed them. How the source made its calls: active means hit-call score of the fitted dose curve at least 0.9, where 1 is the maximum; inactive means score below 0.9.
readoutType: AC50

Previously resolved entries follow.
>  <compound>
CC(C)N1C(=O)N(c2ccccc2)CSC1=NC(C)(C)C

>  <assayResult>
115 µM (active)

$$$$
>  <compound>
CC(C)=CC1C(C(=O)OCc2coc(Cc3ccccc3)c2)C1(C)C (stereo unspecified)

>  <assayResult>
inactive

$$$$
>  <compound>
CS(=O)(=O)c1cc(C(F)(F)F)ccc1C(=O)c1cnoc1C1CC1

>  <assayResult>
inactive

$$$$
>  <compound>
COC(=O)N(C(=O)N1CO[C@@]2(C(=O)OC)Cc3cc(Cl)ccc3C2=N1)c1ccc(OC(F)(F)F)cc1

>  <assayResult>
inactive

$$$$
>  <compound>
CCCCC(C#N)(Cn1cncn1)c1ccc(Cl)cc1 (stereo unspecified)

>  <assayResult>
inactive

$$$$

Reported AC50 for N#Cc1c[nH]cc1-c1cccc2c1OC(F)(F)O2 : what is it? 22.4 µM (active)

Reported AC50 for O=C1C2CC=CCC2C(=O)N1SC(Cl)(Cl)Cl (stereo unspecified) : what is it? 54.6 µM (active)

Reported AC50 for CCNP(=S)(OC)O/C(C)=C/C(=O)OC(C)C (stereo unspecified) : what is it? inactive

Reported AC50 for CC1(C)CCC(=Cc2ccc(Cl)cc2)C1(O)Cn1cncn1 (stereo unspecified) : what is it? inactive

Reported AC50 for CC(C)(C)C(=O)C(Oc1ccc(Cl)cc1)n1cncn1 (stereo unspecified) : what is it? inactive

Reported AC50 for CCOP(=S)(OCC)Oc1nc(Cl)n(C(C)C)n1 : what is it? inactive

---

Read-out: Monokine induced gamma interferon (MIG), CXCL9 (gene 4283)
Experiment: BSK_3C_MIG: BioMAP Diversity Plus: 3C Assay for Monokine induced gamma interferon (MIG) Biomarker Activity (AID 2283021)
Details: primary human endothelial cells (HUVEC); actives raise or lower the signal
The source made the active and inactive calls. Rule for the calls: active = hit-call score of the fitted dose curve at least 0.9, where 1 is the maximum; inactive = score below 0.9.
readoutType: outcome

Previously resolved entries follow.
>  <molecule>
CN/C(=N\[N+](=O)[O-])NCc1cnc(Cl)s1

>  <assayResult>
inactive

$$$$
>  <molecule>
CC(C)Oc1cccc(NC(=O)c2ccccc2C(F)(F)F)c1

>  <assayResult>
inactive

$$$$
>  <molecule>
O=C(O)c1c(Cl)ccc2cc(Cl)cnc12

>  <assayResult>
inactive

$$$$
>  <molecule>
CCCC(=NOCC)C1=C(O)CC(CC(C)SCC)CC1=O (stereo not given)

>  <assayResult>
inactive

$$$$

Reported outcome for N#Cc1c[nH]cc1-c1cccc2c1OC(F)(F)O2 : what is it? inactive

---

Read-out: TIMP metallopeptidase inhibitor 2 (TIMP2), TIMP2 (gene 7077)
Experiment: BSK_KF3CT_TIMP2: BioMAP Diversity Plus: KF3CT Assay for TIMP metallopeptidase inhibitor 2 (TIMP2) Biomarker Activity (AID 2283071)
Conditions: primary human keratinocytes with fibroblasts; actives raise or lower the signal
Calls of active or inactive are those of the source. The calls were made as follows: active = hit-call score of the fitted dose curve at least 0.9, where 1 is the maximum; inactive = score below 0.9.
Please state which outcome applies, choosing from active, inactive

Dear colleague, could you share the recorded outcome for CC1(C)C(C=C(Cl)Cl)C1C(=O)OC(C#N)c1cccc(Oc2ccccc2)c1 (stereo unspecified) when you have a moment? inactive

Dear colleague, could you share the recorded outcome for Cc1cnc(C2=NC(C)(C(C)C)C(=O)N2)c(C(=O)O)c1 (stereo unspecified) when you have a moment? inactive

Dear colleague, could you share the recorded outcome for COc1cc(OC)nc(NC(=O)NS(=O)(=O)c2ncccc2OCC(F)(F)F)n1 when you have a moment? inactive

Dear colleague, could you share the recorded outcome for CCOc1cc(C(C)(C)C)ccc1C1COC(c2c(F)cccc2F)=N1 (stereo unspecified) when you have a moment? active

Dear colleague, could you share the recorded outcome for CC(C)N1C(=O)N(c2ccccc2)CSC1=NC(C)(C)C when you have a moment? inactive

Dear colleague, could you share the recorded outcome for COc1ccc(-c2ccccc2)cc1NNC(=O)OC(C)C when you have a moment? inactive

Dear colleague, could you share the recorded outcome for CCOP(=O)(OCC)Oc1nc(Cl)c(Cl)cc1Cl when you have a moment? active

Dear colleague, could you share the recorded outcome for Clc1cccc(C(Cl)(Cl)Cl)n1 when you have a moment? inactive

Dear colleague, could you share the recorded outcome for C=C(C)CN(CC)c1c([N+](=O)[O-])cc(C(F)(F)F)cc1[N+](=O)[O-] when you have a moment? inactive

Dear colleague, could you share the recorded outcome for CCNC(=O)NC(=O)C(C#N)=NOC when you have a moment? inactive

Dear colleague, could you share the recorded outcome for COC(=O)c1c(C(F)F)nc(C(F)(F)F)c(C2=NCCS2)c1CC(C)C when you have a moment? inactive

Dear colleague, could you share the recorded outcome for CCC(C)n1c(=O)[nH]c(C)c(Br)c1=O (stereo unspecified) when you have a moment? inactive

Dear colleague, could you share the recorded outcome for C=CCOC(=O)C(C)(C)OC(=O)c1cc(-n2c(=O)cc(C(F)(F)F)n(C)c2=O)ccc1Cl when you have a moment? active

Dear colleague, could you share the recorded outcome for CC1(C)CON(Cc2ccccc2Cl)C1=O when you have a moment? inactive

Dear colleague, could you share the recorded outcome for Cc1c(COC(=O)[C@@H]2[C@H](/C=C(\Cl)C(F)(F)F)C2(C)C)cccc1-c1ccccc1 when you have a moment? inactive

Dear colleague, could you share the recorded outcome for CC(C)Nc1nc(Cl)nc(NC(C)C)n1 when you have a moment? inactive

Dear colleague, could you share the recorded outcome for CN/C(=N\[N+](=O)[O-])NCc1cnc(Cl)s1 when you have a moment? inactive

Dear colleague, could you share the recorded outcome for N#Cc1c[nH]cc1-c1cccc2c1OC(F)(F)O2 when you have a moment? inactive

Dear colleague, could you share the recorded outcome for CNC(=O)Oc1cccc2ccccc12 when you have a moment? inactive

Dear colleague, could you share the recorded outcome for Cc1ccc(N=CN(C)C=Nc2ccc(C)cc2C)c(C)c1 when you have a moment? active

Dear colleague, could you share the recorded outcome for COCC(=O)N(c1c(C)cccc1C)C(C)C(=O)OC (stereo unspecified) when you have a moment? inactive

Dear colleague, could you share the recorded outcome for CCN(CC)c1nc(C)cc(OP(=S)(OC)OC)n1 when you have a moment? inactive

Dear colleague, could you share the recorded outcome for Cn1c(-c2ccccc2)cc(-c2ccccc2)[n+]1C when you have a moment? active

Dear colleague, could you share the recorded outcome for CCOc1nc(C(Cl)(Cl)Cl)ns1 when you have a moment? inactive

Dear colleague, could you share the recorded outcome for CCSC(=O)N1CCCCCC1 when you have a moment? inactive

Dear colleague, could you share the recorded outcome for COP(=S)(OC)SCn1nnc2ccccc2c1=O when you have a moment? inactive

---

Target: Glucocorticoid receptor (Homo sapiens) (UniProt P04150)
Sequence (P04150 whole entry, looked up): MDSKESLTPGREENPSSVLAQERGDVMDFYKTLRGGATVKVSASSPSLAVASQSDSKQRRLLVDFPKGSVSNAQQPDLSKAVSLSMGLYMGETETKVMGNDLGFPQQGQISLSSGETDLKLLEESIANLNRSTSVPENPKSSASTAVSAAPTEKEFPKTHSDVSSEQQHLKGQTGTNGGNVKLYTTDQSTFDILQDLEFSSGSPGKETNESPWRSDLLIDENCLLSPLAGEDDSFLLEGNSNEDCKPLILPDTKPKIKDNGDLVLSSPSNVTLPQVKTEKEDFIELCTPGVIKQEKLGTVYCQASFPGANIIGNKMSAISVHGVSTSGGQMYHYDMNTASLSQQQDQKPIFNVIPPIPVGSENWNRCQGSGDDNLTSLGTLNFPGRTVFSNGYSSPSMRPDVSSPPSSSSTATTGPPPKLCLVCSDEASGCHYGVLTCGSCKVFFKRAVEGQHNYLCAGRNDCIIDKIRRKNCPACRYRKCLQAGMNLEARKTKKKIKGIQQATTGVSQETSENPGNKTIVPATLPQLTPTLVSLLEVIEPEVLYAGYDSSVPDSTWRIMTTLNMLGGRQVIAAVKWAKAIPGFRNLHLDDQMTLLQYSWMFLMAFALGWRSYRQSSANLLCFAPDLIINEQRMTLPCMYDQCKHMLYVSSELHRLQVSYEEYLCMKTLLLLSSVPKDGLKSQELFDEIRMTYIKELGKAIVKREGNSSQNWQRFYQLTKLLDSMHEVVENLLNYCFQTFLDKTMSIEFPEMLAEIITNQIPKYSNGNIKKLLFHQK
Test: ATG_GR_TRANS: Attagene TRANS-FACTORIAL HepG2 Assay for human Glucocorticoid Receptor (GR) (AID 2282978);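 also: activators score as hits since higher reporter transcript over DMSO is fitted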
Settings: HepG2 Attagene TRANS GR reporter, mRNA transcription
Results filed as inconclusive are left out. Calls of active or inactive are those of the source. How the source made its calls: active means hit-call score of the fitted dose curve at least 0.9, where 1 is the maximum; inconclusive means response in the unintended direction; inactive means score below 0.9.
readoutType: outcome

Previously resolved entries follow.
>  <molecule>
Cc1ccc(N=CN(C)C=Nc2ccc(C)cc2C)c(C)c1

>  <readoutType>
outcome

>  <assayResult>
inactive

$$$$
>  <molecule>
CCOC(=O)C(C)OC(=O)c1cc(Oc2ccc(C(F)(F)F)cc2Cl)ccc1[N+](=O)[O-] (stereo unspecified)

>  <readoutType>
outcome

>  <assayResult>
inactive

$$$$
>  <molecule>
CSC(=O)c1c(C(F)F)nc(C(F)(F)F)c(C(=O)SC)c1CC(C)C

>  <readoutType>
outcome

>  <assayResult>
inactive

$$$$
>  <molecule>
COc1cc(Cl)c(OC)cc1Cl

>  <readoutType>
outcome

>  <assayResult>
inactive

$$$$
>  <molecule>
N#Cc1c(Cl)cccc1Cl

>  <readoutType>
outcome

>  <assayResult>
inactive

$$$$

Reported outcome for Cc1nc(N(C)C)nc(OC(=O)N(C)C)c1C : what is it? inactive

Reported outcome for COC(=O)N(C(=O)N1CO[C@@]2(C(=O)OC)Cc3cc(Cl)ccc3C2=N1)c1ccc(OC(F)(F)F)cc1 : what is it? inactive

Reported outcome for CCOP(=O)(OCC)Oc1nc(Cl)c(Cl)cc1Cl : what is it? inactive

Reported outcome for CC(C)=CC1C(C(=O)OCc2coc(Cc3ccccc3)c2)C1(C)C (stereo unspecified) : what is it? inactive

Reported outcome for CCOc1nc(F)cc2nc(S(=O)(=O)Nc3c(Cl)cccc3Cl)nn12 : what is it? inactive

Reported outcome for Cc1cc(C)nc(Nc2ccccc2)n1 : what is it? inactive
